Could you please report measured hERG current change (%, negative = inhibition) at 10uM for the items listed next?
# target entity: human ether-à-go-go-related gene (hERG) potassium channel (human, UniProt Q12809);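 also: peak tail current of the secondary pulse compared with the same well before compound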
# Sequence (Q12809 whole entry, looked up): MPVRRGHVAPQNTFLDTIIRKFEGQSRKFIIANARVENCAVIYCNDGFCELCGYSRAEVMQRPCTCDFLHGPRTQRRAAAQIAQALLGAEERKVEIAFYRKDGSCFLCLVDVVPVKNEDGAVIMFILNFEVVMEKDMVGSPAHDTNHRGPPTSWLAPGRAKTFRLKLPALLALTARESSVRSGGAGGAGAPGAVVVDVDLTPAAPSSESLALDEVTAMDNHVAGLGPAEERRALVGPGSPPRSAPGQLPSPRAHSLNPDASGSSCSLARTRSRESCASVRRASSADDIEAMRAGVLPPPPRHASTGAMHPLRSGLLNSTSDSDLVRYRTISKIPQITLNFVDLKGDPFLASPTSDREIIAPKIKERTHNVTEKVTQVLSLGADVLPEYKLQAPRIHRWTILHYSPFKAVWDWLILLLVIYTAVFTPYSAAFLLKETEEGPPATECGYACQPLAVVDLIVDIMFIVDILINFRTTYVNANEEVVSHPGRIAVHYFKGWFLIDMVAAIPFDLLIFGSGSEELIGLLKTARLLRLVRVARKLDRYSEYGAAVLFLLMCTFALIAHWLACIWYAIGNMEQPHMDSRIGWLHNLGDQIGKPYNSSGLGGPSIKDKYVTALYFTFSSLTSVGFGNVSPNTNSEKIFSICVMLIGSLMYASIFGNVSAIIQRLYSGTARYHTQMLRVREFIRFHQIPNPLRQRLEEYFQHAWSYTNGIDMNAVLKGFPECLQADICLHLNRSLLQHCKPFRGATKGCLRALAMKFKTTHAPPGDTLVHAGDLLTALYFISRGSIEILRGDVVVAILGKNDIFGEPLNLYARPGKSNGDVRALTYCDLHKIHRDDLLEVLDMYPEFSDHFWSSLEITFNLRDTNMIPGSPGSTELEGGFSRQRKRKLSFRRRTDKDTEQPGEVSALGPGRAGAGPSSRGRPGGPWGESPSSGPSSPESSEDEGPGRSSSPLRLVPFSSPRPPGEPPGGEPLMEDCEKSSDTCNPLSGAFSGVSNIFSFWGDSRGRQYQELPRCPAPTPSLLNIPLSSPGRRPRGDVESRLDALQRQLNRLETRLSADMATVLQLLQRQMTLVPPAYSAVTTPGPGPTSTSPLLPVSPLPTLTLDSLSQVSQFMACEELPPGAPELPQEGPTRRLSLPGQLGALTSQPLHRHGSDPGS
# experiment description: primary screen, population patch clamp on CHO cells stably expressing hERG; higher = less effect of the substance
About 14,000 (4.5%) of roughly 310,000 compounds showed an effect of 50% or more. The effect is printed as a negative number. The list comes from a sample in which strong results are over-represented; it also holds close analogues and randomly drawn compounds.

Input: Identify measured hERG current change (%, negative = inhibition) at 10uM associated with COc1ccc(Cl)cc1NC(=O)CN(C)C(=O)c1ccc(OCc2ccccc2)c(OC)c1
Output: 6.49%

Input: Identify measured hERG current change (%, negative = inhibition) at 10uM associated with CN1CCN(CCOc2ccc(-c3ccccc3)cc2)CC1.Cl
Output: -56.3%

Input: Identify measured hERG current change (%, negative = inhibition) at 10uM associated with Cc1nonc1OCCNc1ccc([N+](=O)[O-])c2cccnc12
Output: -18%

Input: Identify measured hERG current change (%, negative = inhibition) at 10uM associated with CN1CCN(CCCOc2ccc(-c3ccccc3)cc2)CC1.Cl
Output: -69.1%

Input: Identify measured hERG current change (%, negative = inhibition) at 10uM associated with COC(=O)c1c(NC(=O)C2CCCCC2)sc2c1CCN(C(C)C)C2.Cl
Output: -16.5%

Input: Identify measured hERG current change (%, negative = inhibition) at 10uM associated with Cc1ccc(S(=O)(=O)N2N=C3CCCCC3C2(O)C(F)(F)F)cc1 (stereo not drawn)
Output: 4.99%

Input: Identify measured hERG current change (%, negative = inhibition) at 10uM associated with Cl.c1ccc(-c2ccc(OCCN3CCOCC3)cc2)cc1
Output: 3.74%

Input: Identify measured hERG current change (%, negative = inhibition) at 10uM associated with N#Cc1ccc(C2=CC(=O)C[C@H](c3ccc4c(c3)OCO4)C2)cc1
Output: -70%

Input: Identify measured hERG current change (%, negative = inhibition) at 10uM associated with CCN1CCN(CCCOc2ccc(-c3ccccc3)cc2)CC1
Output: -71.9%

Input: Identify measured hERG current change (%, negative = inhibition) at 10uM associated with Cc1nonc1OCCNCCNc1ccc([N+](=O)[O-])c2cccnc12
Output: -52.2%

Input: Identify measured hERG current change (%, negative = inhibition) at 10uM associated with CCCCCCCn1c(=O)c(C(=O)OC)c(N)c2ccccc21
Output: -9%

Input: Identify measured hERG current change (%, negative = inhibition) at 10uM associated with O=C(CC1SC(=O)N(Cc2ccccc2)C1=O)Nc1nccs1 (stereo not drawn)
Output: 3.22%

Input: Identify measured hERG current change (%, negative = inhibition) at 10uM associated with C/C(=N/NC(=O)c1ccn(C)n1)c1ccncc1
Output: 13.2%

Input: Identify measured hERG current change (%, negative = inhibition) at 10uM associated with Cc1nonc1OCCNCCNc1ccc([N+](=O)[O-])cc1Cl
Output: -49.7%

Input: Identify measured hERG current change (%, negative = inhibition) at 10uM associated with CCCCCn1c(=O)c(C(=O)OCC)c(O)c2ccccc21
Output: -64%

Input: Identify measured hERG current change (%, negative = inhibition) at 10uM associated with Cc1ccccc1CSCCNC(=O)CCSc1ccccc1
Output: 2.74%

Input: Identify measured hERG current change (%, negative = inhibition) at 10uM associated with O=C1C=C(c2ccc3ncccc3c2)C[C@@H](c2ccc(Cl)cc2)C1
Output: -3.34%

Input: Identify measured hERG current change (%, negative = inhibition) at 10uM associated with Cc1nonc1OCCN1CCN(c2ccccc2[N+](=O)[O-])CC1.Cl
Output: -37.2%

Input: Identify measured hERG current change (%, negative = inhibition) at 10uM associated with O=C1C=C(c2ccc3c(c2)OCO3)C[C@@H](c2ccc3c(c2)OCO3)C1
Output: 10.9%

Input: Identify measured hERG current change (%, negative = inhibition) at 10uM associated with Cc1nonc1OCCNCCNc1ccccc1[N+](=O)[O-]
Output: -23.4%

Input: Identify measured hERG current change (%, negative = inhibition) at 10uM associated with Cc1nonc1OCCN1CCN(c2ccc([N+](=O)[O-])cc2)CC1
Output: -98.3%

Input: Identify measured hERG current change (%, negative = inhibition) at 10uM associated with COc1ccc(C2=CC(=O)C[C@H](c3ccc(Cl)cc3)C2)cn1
Output: -12.4%

Input: Identify measured hERG current change (%, negative = inhibition) at 10uM associated with Cc1ccc(C2=CC(=O)C[C@H](c3ccc(F)cc3)C2)cc1
Output: 19.4%

Input: Identify measured hERG current change (%, negative = inhibition) at 10uM associated with CCCCCCCCn1c(=O)c(C(=O)OCC)c(O)c2ccccc21
Output: 14.5%

Input: Identify measured hERG current change (%, negative = inhibition) at 10uM associated with Cc1nn(C)c(Cl)c1CN1CCC(CO)(CCOc2ccccc2)CC1
Output: -54.7%

Input: Identify measured hERG current change (%, negative = inhibition) at 10uM associated with C#CCN(Cc1ccco1)C(=O)c1ccc(OC2CCN(Cc3ccccn3)CC2)cc1
Output: -66.9%

Input: Identify measured hERG current change (%, negative = inhibition) at 10uM associated with O=c1cnn(-c2ccccc2)c(-c2ccccc2)c1
Output: 3.33%

Input: Identify measured hERG current change (%, negative = inhibition) at 10uM associated with COc1cccc(C=Nc2ccc(N3CCOCC3)cc2)c1O
Output: 17.9%

Input: Identify measured hERG current change (%, negative = inhibition) at 10uM associated with CCCCOc1ccc(CN2CCN(CC)CC2)cc1
Output: -14.2%

Input: Identify measured hERG current change (%, negative = inhibition) at 10uM associated with COc1ccc(CN2CCCN(C)CC2)c(OC)c1C
Output: 11.1%

Input: Identify measured hERG current change (%, negative = inhibition) at 10uM associated with CCCCn1c(=O)c(C(=O)OCC)c(O)c2ccccc21
Output: 2.18%

Input: Identify measured hERG current change (%, negative = inhibition) at 10uM associated with COc1cc(NC(=O)CSc2nc(C)c(C)c(C)n2)c(C)cc1[N+](=O)[O-]
Output: 0.898%

Input: Identify measured hERG current change (%, negative = inhibition) at 10uM associated with COc1ccccc1NC(=O)CCCCC(=O)Nc1ccccc1OC
Output: 7.88%

Input: Identify measured hERG current change (%, negative = inhibition) at 10uM associated with CN1CCN(/N=C/c2c(O)n(Cc3ccc(F)cc3)c(=O)[nH]c2=O)CC1
Output: 0.78%

Input: Identify measured hERG current change (%, negative = inhibition) at 10uM associated with Cc1[nH]c2ccccc2c1SCCN
Output: 2.5%

Input: Identify measured hERG current change (%, negative = inhibition) at 10uM associated with CC(C)N1CCc2c(sc(NC(=O)C3CCCCC3)c2C(N)=O)C1.Cl
Output: -21.7%
